Recorded values, source paper PMC12095788.

- test_target: full-length human Nurr1 (NBRE) (Homo sapiens)
- assay_method_text: Full-length Nurr1 reporter gene assay, monomer response element (NBRE)
recorded_metric: EC50 (nM)

>>> print(df.to_string())
                                   compound  recorded_metric  recorded_number
0  O=C(O)C1=C(C(=O)Nc2ccc(-c3ccccc3OCc3ccccc3)cc2F)CCC1 [compound 1]             EC50               60

* * *

- test_target: full-length human Nurr1 / RXR heterodimer (DR5) (Homo sapiens, UniProt P43354)
- assay_method_text: Full-length Nurr1 reporter gene assay, RXR-heterodimer response element (DR5)
pEC50: −log10 of the molar value.
recorded_metric: pEC50

>>> df
                                   compound                               test_target  recorded_metric  recorded_number
0  O=C(O)C1=C(C(=O)Nc2ccc(-c3ccccc3OCc3ccccc3)cc2F)CCC1 [compound 1]  full-length human Nurr1 / RXR heterodimer (DR5) (Homo sapiens, UniProt P43354)            pEC50             7.22

* * *

- test_target: Nurr1 LBD - NCoA6 (Homo sapiens)
- Sequence (P43354 364-598): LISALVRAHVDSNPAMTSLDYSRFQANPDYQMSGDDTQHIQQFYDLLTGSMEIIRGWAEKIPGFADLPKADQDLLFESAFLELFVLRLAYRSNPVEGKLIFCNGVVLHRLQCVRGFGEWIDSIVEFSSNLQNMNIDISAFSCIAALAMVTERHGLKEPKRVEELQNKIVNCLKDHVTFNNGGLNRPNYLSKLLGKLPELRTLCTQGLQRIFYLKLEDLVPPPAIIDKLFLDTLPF
recorded_metric: IC50 (µM)

>>> print(df.to_string())
                               given_smiles  recorded_metric  recorded_number
0  O=C(O)C1=C(C(=O)Nc2ccc(-c3ccccc3OCc3ccccc3)cc2F)CCC1             IC50                7

* * *

- test_target: Gal4-Nurr1 (wt human Nurr1 LBD) (Homo sapiens)
- assay_method_text: Gal4-Nurr1 hybrid reporter gene assay (wild-type)
- condition_context: HEK293T, Gal4 hybrid reporter, wt
pEC50: −log10 of the molar value.
recorded_metric: pEC50

>>> print(df.to_string())
                               given_smiles  recorded_metric  recorded_number
0  O=C(O)C1=C(C(=O)Nc2ccc(-c3ccccc3OCc3ccccc3)cc2F)CCC1            pEC50             7.52

* * *

- test_target: full-length human Nurr1 (NurRE) (Homo sapiens)
- Sequence (P43354 whole entry): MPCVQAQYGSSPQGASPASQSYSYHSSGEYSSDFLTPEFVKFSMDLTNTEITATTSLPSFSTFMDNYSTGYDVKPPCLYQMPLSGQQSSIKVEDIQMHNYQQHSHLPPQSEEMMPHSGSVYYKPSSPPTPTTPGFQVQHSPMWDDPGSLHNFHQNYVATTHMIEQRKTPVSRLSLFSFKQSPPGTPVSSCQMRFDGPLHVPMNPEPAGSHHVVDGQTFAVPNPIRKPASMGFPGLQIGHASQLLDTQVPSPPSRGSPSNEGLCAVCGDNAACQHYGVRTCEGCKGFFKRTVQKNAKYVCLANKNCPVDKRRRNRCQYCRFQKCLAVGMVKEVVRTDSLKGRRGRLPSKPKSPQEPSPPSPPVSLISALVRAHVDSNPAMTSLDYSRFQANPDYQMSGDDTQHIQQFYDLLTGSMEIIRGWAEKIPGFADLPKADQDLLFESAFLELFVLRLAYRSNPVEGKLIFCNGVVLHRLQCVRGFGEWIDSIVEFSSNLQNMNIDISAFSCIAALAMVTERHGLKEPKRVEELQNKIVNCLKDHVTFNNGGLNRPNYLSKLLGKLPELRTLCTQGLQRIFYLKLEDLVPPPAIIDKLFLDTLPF
- assay_method_text: Full-length Nurr1 reporter gene assay, homodimer response element (NurRE)
pEC50: −log10 of the molar value.
recorded_metric: pEC50

>>> df
                               given_smiles  recorded_number
0  O=C(O)C1=C(C(=O)Nc2ccc(-c3ccccc3OCc3ccccc3)cc2F)CCC1             7.15
